test: Pharmacokinetics in nude mice bearing H2122 tumors; type: in vivo; conditions: mouse, Tumor, PO 50 mg/kg
Measured endpoint: bioavailability (%)
One number for each entry, in %.

Endpoint output: bioavailability of COc1ccc(-c2nc(N3CCOCC3)c3sc(CN(C)c4ncc(C(=O)NO)cn4)cc3n2)cn1 . Value? 14.8

---

test system: THP-1; test: Cell proliferation assay THP-1; format: cell-based; details: Homo sapiens, AML, 72 hours, read-out: IC50 antiproliferative activity
Field: IC50. Provide a value for each of the molecules that follow.

Below are some molecules; for each one, tell me its IC50.
1. CS(=O)(=O)N1CCN(Cc2cc3nc(-c4cccc5[nH]ncc45)nc(N4CCOCC4)c3s2)CC1 [GDC-0941, reference compound]
2. COc1ccc(-c2nc(N3CCOCC3)c3sc(CN(C)c4ncc(C(=O)NO)cn4)cc3n2)cn1

1: 1000 to 10000 nM; 2: 10 to 100 nM
